# test method notes: soluble on expression in E. coli; label from the status in PepcDB or PDB records
property name: soluble on expression in E. coli

seq string	property name	test result
MAVKFFGQFLVEKGVVSRETLLQAIELQESVNLSFGATSLAMGILTEADIERIHNAQRIEDLRFGDMAVKLGLLTSEQMMQVLTRQKNTHLYIGEALVKVGSFQADELPKYLEEFKADQAQYATDTVVIPTGVSEPKIWEMVADLSYKMLTRVALLVFRPEPCFVADRVPAMDVYATMDFTGDISGRYFMGVTAATQKKIAKAILKEPNVDNEPKEILDDTVMEFVNVALGNIAAKAAQSGKSMEIAPPEIIEAPDGIQVPDGHKALCFPVCLSDGDRIELAVFIQQLEHHHHHH	soluble on expression in E. coli	soluble
MRVVAFVPGSISDQILFFPTLDDLKRYYPDAQIDVIVESQSKAAYRLSKSVHEVLTFDYSDHNSLADWGNLVGTIRDREYDVAMTTGESWFIGLFLWLTGIPTRIGYKGKGAGFLTNTIRRNTSQYVAAMYHDLLKPVGIKTPCPELTANVPKPDIQWAQQEQKRLGIHETGYILIYGGSSHSSQIDGADTSYPIASWQQIIQDCQHKQPELPIVLIKEADDENFVRVLLESCSNLKITSPDDIGKLTAIISGASLMLSIENGPLQLAVAVQTYTIALLSSTDADKLLPKSDKFLAIKSHSGKTVDIPPPTVLEKIWGG	soluble on expression in E. coli	not soluble
MAQEKMDLDFEADTSEGATLRRSNSAPLIHVLSDLSQVFEPYPLRTGRTSTAIMSHHSLEEGLDMMNRETTNEREAQAGMQISQSWDESLSLSGSDFDKPEKLYSPKRIDFTPVSPAPSPTRGFGKQCLSPSLQMFVSSSGMPPSPVLNPRHFSRRSQSPVKCIRPSVLGPLKRKGEMEMESQPKRPFQGTTSMLSTNPAQLSDFSSCSDILDGSSISSGLSSDSLATGSAPAESPVACSNSCSPFILMDDLSPK	soluble on expression in E. coli	not soluble
EVVKRDRIRNKDRPAMQLYQPGARSRNRLCPPDDSTKSGDSAAERKQESGISHRKEGGEE	soluble on expression in E. coli	soluble
MARFSGKSVIITGSSNGIGRSAAVIFAKEGAQVTITGRNEDRLEETKQQILKAGVPAEKINAVVADVTEASGQDDIINTTLAKFGKIDILVNNAGANLADGTANTDQPVELYQKTFKLNFQAVIEMTQKTKEHLIKTKGEIVNVSSIVAGPQAHSGYPYYACAKAALDQYTRCTAIDLIQHGVRVNSVSPGAVATGFMGAMGLPETASDKLYSFIGSRKECIPVGHCGKPEEIANIIVFLADRNLSSYIIGQSIVADGGSTLVMGMQTHDLMSVLSQ	soluble on expression in E. coli	soluble

// lookup soluble on expression in E. coli for MNIEEAKKLIDKQSIGKGGVGDIPVVKTHIVKVLLDQIDQPQPEVPRFVADWYEKHKDSLECDLYLYHMSIYDEEVEKDDFYYWMQTSKNPVYTLINMHQFGYTIQKEKLYTVEIPNPNERQLSFVLMRQLSGNVSIKVMHRDNLDLLKTDNDLQLTESEIRKDFDWAWQFREEVVE not soluble

----------
# test method notes: soluble on expression in E. coli; label from the status in PepcDB or PDB records

seq string	soluble on expression in E. coli
MPNNISKSAIIKEGVIIGENVTIEDNVYIDYGCIIRDNVHIKKGSFIGARSILGEYLVDFYNDRINKKHPLIIGENALIRTENVIYGDTIIGDNFQTGHKVTIRENTKIGNNVKIGTLSDIQHHVYIGNYVNIHSNVFVGEKSIIKDFVWLFPHVVLTNDPTPPSNELLGVTIELFAVIAARSVVLPGIHINEDALVGAGAVVTKDVPKETVVVGNPAREICSIRKIKNKITGEQVYPWRYTFKRGMPWEETDYDTWIKNISIENLEHHHHHH	soluble
MASQPNSSAKKKEEKGKNIQVVVRCRPFNLAERKASAHSIVECDPVRKEVSVRTGGLADKSSRKTYTFDMVFGASTKQIDVYRSVVCPILDEVIMGYNCTIFAYGQTGTGKTFTMEGERSPNEEYTWEEDPLAGIIPRTLHQIFEKLTDNGTEFSVKVSLLEIYNEELFDLLNPSSDVSERLQMFDDPRNKRGVIIKGLEEITVHNKDEVYQILEKGAAKRTTAATLMNAYSSRSHSVFSVTIHMKETTIDGEELVKIGKLNLVDLAGSENIGRSGAVDKRAREAGNINQSLLTLGRVITALVERTPHVPYRESKLTRILQDSLGGRTRTSIIATISPASLNLEETLSTLEYAHRAKNILNKPEVNQKL	soluble

Taken from the DeepSol protein solubility set.
